- Condition description: in n-propanol, 303.15 K
Property measured: solubility (mole fraction)

Query string: Tell me the measured solubility (mole fraction) of `c1ccc(-c2nnn[nH]2)cc1` , please.
Result string: 0.0188

----------
- Condition description: in acetonitrile, 290.65 K
Property measured: solubility (mole fraction)
The response must contain the number and no unit.

Query string: Tell me the measured solubility (mole fraction) of `c1ccc(-c2nnn[nH]2)cc1` , please.
Result string: 0.00236

----------
- Condition description: in ethanol, 310.65 K
Property measured: solubility (mole fraction)
The response must contain the number and no unit.

Query string: Tell me the measured solubility (mole fraction) of `c1ccc(-c2nnn[nH]2)cc1` , please.
Result string: 0.0253

----------
- Condition description: in acetone, 288.15 K
Property measured: solubility (mole fraction)
The response must contain the number and no unit.

Query string: Tell me the measured solubility (mole fraction) of `c1ccc(-c2nnn[nH]2)cc1` , please.
Result string: 0.0184

----------
- Condition description: in ethanol, 313.15 K
Property measured: solubility (mole fraction)

Query string: Tell me the measured solubility (mole fraction) of `c1ccc(-c2nnn[nH]2)cc1` , please.
Result string: 0.0264

----------
- Condition description: in isopropanol, 303.15 K
Property measured: solubility (mole fraction)
The response must contain the number and no unit.

Query string: Tell me the measured solubility (mole fraction) of `c1ccc(-c2nnn[nH]2)cc1` , please.
Result string: 0.0208

----------
- Condition description: in methanol, 303.15 K
Property measured: solubility (mole fraction)
The response must contain the number and no unit.

Query string: Tell me the measured solubility (mole fraction) of `c1ccc(-c2nnn[nH]2)cc1` , please.
Result string: 0.023

----------
- Condition description: in toluene, 295.65 K
Property measured: solubility (mole fraction)
The response must contain the number and no unit.

Query string: Tell me the measured solubility (mole fraction) of `c1ccc(-c2nnn[nH]2)cc1` , please.
Result string: 5.09e-05

----------
- Condition description: in 2-butanone, 295.65 K
Property measured: solubility (mole fraction)
The response must contain the number and no unit.

Query string: Tell me the measured solubility (mole fraction) of `c1ccc(-c2nnn[nH]2)cc1` , please.
Result string: 0.0193

----------
- Condition description: in acetonitrile, 300.65 K
Property measured: solubility (mole fraction)

Query string: Tell me the measured solubility (mole fraction) of `c1ccc(-c2nnn[nH]2)cc1` , please.
Result string: 0.00331

----------
- Condition description: in methanol, 293.15 K
Property measured: solubility (mole fraction)

Query string: Tell me the measured solubility (mole fraction) of `c1ccc(-c2nnn[nH]2)cc1` , please.
Result string: 0.0189

----------
- Condition description: in acetone, 285.65 K
Property measured: solubility (mole fraction)
The response must contain the number and no unit.

Query string: Tell me the measured solubility (mole fraction) of `c1ccc(-c2nnn[nH]2)cc1` , please.
Result string: 0.0176

----------
- Condition description: in methanol, 283.15 K
Property measured: solubility (mole fraction)
The response must contain the number and no unit.

Query string: Tell me the measured solubility (mole fraction) of `c1ccc(-c2nnn[nH]2)cc1` , please.
Result string: 0.0156

----------
- Condition description: in ethanol, 303.15 K
Property measured: solubility (mole fraction)
The response must contain the number and no unit.

Query string: Tell me the measured solubility (mole fraction) of `c1ccc(-c2nnn[nH]2)cc1` , please.
Result string: 0.022

----------
- Condition description: in n-propanol, 310.65 K
Property measured: solubility (mole fraction)
The response must contain the number and no unit.

Query string: Tell me the measured solubility (mole fraction) of `c1ccc(-c2nnn[nH]2)cc1` , please.
Result string: 0.0213

----------
- Condition description: in ethyl acetate, 315.65 K
Property measured: solubility (mole fraction)
The response must contain the number and no unit.

Query string: Tell me the measured solubility (mole fraction) of `c1ccc(-c2nnn[nH]2)cc1` , please.
Result string: 0.0106

----------
- Condition description: in DMF, 285.65 K
Property measured: solubility (mole fraction)

Query string: Tell me the measured solubility (mole fraction) of `c1ccc(-c2nnn[nH]2)cc1` , please.
Result string: 0.22

----------
- Condition description: in n-propanol, 293.15 K
Property measured: solubility (mole fraction)
The response must contain the number and no unit.

Query string: Tell me the measured solubility (mole fraction) of `c1ccc(-c2nnn[nH]2)cc1` , please.
Result string: 0.016

----------
- Condition description: in acetonitrile, 318.15 K
Property measured: solubility (mole fraction)
The response must contain the number and no unit.

Query string: Tell me the measured solubility (mole fraction) of `c1ccc(-c2nnn[nH]2)cc1` , please.
Result string: 0.00555

----------
- Condition description: in n-propanol, 285.65 K
Property measured: solubility (mole fraction)
The response must contain the number and no unit.

Query string: Tell me the measured solubility (mole fraction) of `c1ccc(-c2nnn[nH]2)cc1` , please.
Result string: 0.0142

----------
- Condition description: in 1,4-dioxane, 283.15 K
Property measured: solubility (mole fraction)
The response must contain the number and no unit.

Query string: Tell me the measured solubility (mole fraction) of `c1ccc(-c2nnn[nH]2)cc1` , please.
Result string: 0.00929

----------
- Condition description: in isopropanol, 285.65 K
Property measured: solubility (mole fraction)
The response must contain the number and no unit.

Query string: Tell me the measured solubility (mole fraction) of `c1ccc(-c2nnn[nH]2)cc1` , please.
Result string: 0.0147

----------
- Condition description: in cyclohexane, 318.15 K
Property measured: solubility (mole fraction)
The response must contain the number and no unit.

Query string: Tell me the measured solubility (mole fraction) of `c1ccc(-c2nnn[nH]2)cc1` , please.
Result string: 1.11e-05

----------
- Condition description: in cyclohexane, 288.15 K
Property measured: solubility (mole fraction)
The response must contain the number and no unit.

Query string: Tell me the measured solubility (mole fraction) of `c1ccc(-c2nnn[nH]2)cc1` , please.
Result string: 4.34e-06

----------
- Condition description: in 2-butanone, 298.15 K
Property measured: solubility (mole fraction)
The response must contain the number and no unit.

Query string: Tell me the measured solubility (mole fraction) of `c1ccc(-c2nnn[nH]2)cc1` , please.
Result string: 0.0202

----------
- Condition description: in n-propanol, 283.15 K
Property measured: solubility (mole fraction)
The response must contain the number and no unit.

Query string: Tell me the measured solubility (mole fraction) of `c1ccc(-c2nnn[nH]2)cc1` , please.
Result string: 0.0136

----------
- Condition description: in DMSO, 305.65 K
Property measured: solubility (mole fraction)
The response must contain the number and no unit.

Query string: Tell me the measured solubility (mole fraction) of `c1ccc(-c2nnn[nH]2)cc1` , please.
Result string: 0.343

----------
- Condition description: in cyclohexane, 290.65 K
Property measured: solubility (mole fraction)
The response must contain the number and no unit.

Query string: Tell me the measured solubility (mole fraction) of `c1ccc(-c2nnn[nH]2)cc1` , please.
Result string: 4.54e-06

----------
- Condition description: in 2-butanone, 290.65 K
Property measured: solubility (mole fraction)

Query string: Tell me the measured solubility (mole fraction) of `c1ccc(-c2nnn[nH]2)cc1` , please.
Result string: 0.0178

----------
- Condition description: in methanol, 298.15 K
Property measured: solubility (mole fraction)
The response must contain the number and no unit.

Query string: Tell me the measured solubility (mole fraction) of `c1ccc(-c2nnn[nH]2)cc1` , please.
Result string: 0.0209

----------
- Condition description: in cyclohexane, 293.15 K
Property measured: solubility (mole fraction)
The response must contain the number and no unit.

Query string: Tell me the measured solubility (mole fraction) of `c1ccc(-c2nnn[nH]2)cc1` , please.
Result string: 5.04e-06

----------
- Condition description: in toluene, 313.15 K
Property measured: solubility (mole fraction)

Query string: Tell me the measured solubility (mole fraction) of `c1ccc(-c2nnn[nH]2)cc1` , please.
Result string: 0.000129

----------
- Condition description: in DMSO, 298.15 K
Property measured: solubility (mole fraction)
The response must contain the number and no unit.

Query string: Tell me the measured solubility (mole fraction) of `c1ccc(-c2nnn[nH]2)cc1` , please.
Result string: 0.304

----------
- Condition description: in methanol, 288.15 K
Property measured: solubility (mole fraction)

Query string: Tell me the measured solubility (mole fraction) of `c1ccc(-c2nnn[nH]2)cc1` , please.
Result string: 0.0172

----------
- Condition description: in DMF, 303.15 K
Property measured: solubility (mole fraction)
The response must contain the number and no unit.

Query string: Tell me the measured solubility (mole fraction) of `c1ccc(-c2nnn[nH]2)cc1` , please.
Result string: 0.308

----------
- Condition description: in ethyl acetate, 295.65 K
Property measured: solubility (mole fraction)

Query string: Tell me the measured solubility (mole fraction) of `c1ccc(-c2nnn[nH]2)cc1` , please.
Result string: 0.00746
